tested on: STIM1-induced Ca2+ entry in HEK[STIM1] cells; details: read-out: IC50 for inhibition of constitutive calcium entry, absence of store depletion
Property label: pIC50
pIC50 (log units): -log10 of the concentration in mol/L.

// pIC50 lookup, key: NCCOB(c1ccccc1)c1ccccc1 [Compound 2-APB, 2-aminoethoxydiphenyl borate] 4.97

---

system: store-operated calcium entry in HEK[STIM1] cells; conditions: read-out: IC50 for inhibition of calcium entry, thapsigargin store depletion, readdition of external calcium, pre-incubation with increasing doses
Property label: pIC50
pIC50 (log units): -log10 of the concentration in mol/L.

// pIC50 lookup, key: NCCOB(c1ccccc1)c1ccccc1 [Compound 2-APB, 2-aminoethoxydiphenyl borate] 4.98
